- target_under_test: Histamine H3 receptor (Rattus norvegicus, UniProt Q9QYN8)
- Sequence (Q9QYN8 whole entry): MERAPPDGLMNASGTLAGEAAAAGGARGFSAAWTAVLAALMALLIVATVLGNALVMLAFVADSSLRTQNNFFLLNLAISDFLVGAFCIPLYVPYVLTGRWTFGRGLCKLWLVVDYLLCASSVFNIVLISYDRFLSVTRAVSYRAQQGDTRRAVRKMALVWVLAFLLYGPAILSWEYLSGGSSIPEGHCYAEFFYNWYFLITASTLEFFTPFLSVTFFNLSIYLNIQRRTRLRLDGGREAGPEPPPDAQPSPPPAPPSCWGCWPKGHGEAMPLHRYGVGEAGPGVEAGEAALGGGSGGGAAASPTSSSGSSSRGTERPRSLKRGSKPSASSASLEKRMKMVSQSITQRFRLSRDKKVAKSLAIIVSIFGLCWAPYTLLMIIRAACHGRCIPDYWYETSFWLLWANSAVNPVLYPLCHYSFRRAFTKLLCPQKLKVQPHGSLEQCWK
- assay_protocol: Inverse agonist activity at rat histamine H3 receptor assessed as inhibition of R-alpha-methylhistamine induced [35S]GTPgammaS binding
property_measured: EC50

Some entries whose results are on file:
{"line_notation": "C[C@@H]1CCCN1CCCOc1ccc(-c2cn[nH]c(=O)c2)cc1", "target_under_test": "Histamine H3 receptor (Rattus norvegicus, UniProt Q9QYN8)", "property_measured": "EC50", "observed_measurement": "2.1 nM"}
{"line_notation": "C[C@@H]1CCCN1CCCOc1ccc(-c2ccc(=O)n(C)n2)cc1", "target_under_test": "Histamine H3 receptor (Rattus norvegicus, UniProt Q9QYN8)", "property_measured": "EC50", "observed_measurement": "2.2 nM"}

Given C[C@@H]1CCCN1CCCOc1ccc(-c2ccc(=O)[nH]n2)cc1 , report its EC50 on Histamine H3 receptor (Rattus norvegicus, UniProt Q9QYN8). 2 nM
